Recorded values, source patent US20220177583A1.

- Measured Target: T1, human CLDN6, endogenously expressed on cancer cell lines (human, UniProt P56747 1-220)
- T1 construct: also called Endogenous CLDN6+; CLDN6 on ARK2, OVCA429, UMUC4 cells
- T1 sequence: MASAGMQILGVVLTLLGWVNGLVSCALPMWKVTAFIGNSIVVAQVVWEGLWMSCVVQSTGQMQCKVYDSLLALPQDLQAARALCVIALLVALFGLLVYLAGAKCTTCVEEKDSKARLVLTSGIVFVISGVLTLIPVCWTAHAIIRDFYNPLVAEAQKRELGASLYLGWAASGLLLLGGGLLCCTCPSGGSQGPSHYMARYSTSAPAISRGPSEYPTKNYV
- Method Description: FACS, ARK2 cells, 1.5 ug Ab
List of FACS signal values.
Assay Metric: FACS signal

[[record]]
binder = "AB1-4 (antibody, V domains shown, Humanized; also called humanized AB 1-4) VH: QVQLVQSGAEVKKPGASVKVSCKASGYTFTTYTMHWVRQAPGQGLEWMGFINPSSGYTDYAQKFQGRVTMTADTSTSTVYMELSSLRSEDTAVYYCANGDYYVAYWGQGTLVTVSS VL: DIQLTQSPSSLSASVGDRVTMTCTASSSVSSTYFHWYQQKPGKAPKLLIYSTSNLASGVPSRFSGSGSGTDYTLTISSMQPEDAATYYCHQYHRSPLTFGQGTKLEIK"
assay_value = 10000

[[record]]
binder = "AB1-11 (antibody, V domains shown, Humanized; also called humanized AB1-11; HU-11) VH: QVQLVQSGAEVKKPGASVKMSCKASGYTFTTYTMHWVRQAPGQGLEWIGFINPSSGYTDYAQKFQGRVTLTADKSTSTVYMELSSLRSEDTAVYYCANGDYYVAYWGQGTLVTVSS VL: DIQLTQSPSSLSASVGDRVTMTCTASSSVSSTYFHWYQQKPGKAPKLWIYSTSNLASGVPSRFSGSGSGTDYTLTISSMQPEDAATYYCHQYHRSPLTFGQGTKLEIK"
assay_value = 97700

[[record]]
binder = "AB1-8 (antibody, V domains shown, Humanized; also called humanized AB 1-8) VH: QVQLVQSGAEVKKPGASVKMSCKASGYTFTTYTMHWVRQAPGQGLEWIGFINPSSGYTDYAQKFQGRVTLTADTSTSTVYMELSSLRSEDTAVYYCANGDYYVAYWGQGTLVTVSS VL: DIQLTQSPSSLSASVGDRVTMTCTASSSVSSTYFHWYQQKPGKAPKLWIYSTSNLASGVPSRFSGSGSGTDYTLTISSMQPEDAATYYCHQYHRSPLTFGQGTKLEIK"
assay_value = 17600

[[record]]
binder = "AB1-5 (antibody, V domains shown, Humanized; also called humanized AB 1-5) VH: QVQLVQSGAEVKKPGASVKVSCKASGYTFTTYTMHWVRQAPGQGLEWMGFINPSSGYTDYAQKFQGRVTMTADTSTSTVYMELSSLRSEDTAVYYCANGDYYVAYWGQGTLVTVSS VL: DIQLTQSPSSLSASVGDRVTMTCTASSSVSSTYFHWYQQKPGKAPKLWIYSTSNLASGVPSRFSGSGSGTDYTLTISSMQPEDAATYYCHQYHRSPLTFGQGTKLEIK"
assay_value = 22400

[[record]]
binder = "AB9-4 (antibody, V domains shown, Humanized; also called humanized AB 9-4) VH: QVQLVQSGAEVKKPGASVKMSCKASGYRFTDYNMHWVRQAPGQGLEWIGYINPNNGGTNYAQKFQGRATLTVDTSTSTAYMELSSLRSEDTAVYYCARDYLYFFDCWGQGTLLTVSS VL: DIQMTQSPSSLSASVGDRVTITCRASQTIGTWLAWYQQKPGKAPKLLIYAAASLADGVPSRFSGSGSGTDFTFTISSLQPEDFVTYYCQQLYSIPRTFGQGTKLEIK"
assay_value = 1550

